# system-under-test: human oxytocin (hOT) receptor (Homo sapiens)
# Construct: expressed in transfected cells
# Sequence (P30559 1-389): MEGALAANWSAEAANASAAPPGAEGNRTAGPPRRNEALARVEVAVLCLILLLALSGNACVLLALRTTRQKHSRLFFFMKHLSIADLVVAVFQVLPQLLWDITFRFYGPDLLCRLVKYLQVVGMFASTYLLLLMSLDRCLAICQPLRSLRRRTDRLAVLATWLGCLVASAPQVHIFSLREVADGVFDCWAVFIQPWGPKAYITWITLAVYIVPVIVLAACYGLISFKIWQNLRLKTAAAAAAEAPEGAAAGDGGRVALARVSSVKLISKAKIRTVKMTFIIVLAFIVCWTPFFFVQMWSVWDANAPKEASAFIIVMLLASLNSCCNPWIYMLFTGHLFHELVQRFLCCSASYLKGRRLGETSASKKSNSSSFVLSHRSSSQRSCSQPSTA
# test-method-notes: luciferase-based transcriptional reporter assay, selectivity hOT versus hV1a
# Assay type: cell-based
# condition-summary: EC50 ratio
Starred links: 1 amine or outer side, 2 acyl side, 3 side chain; linkers in the order of their positions; H or OH if unused. Positions of bridges follow the written chain, without caps; N, C: chain ends. Non-standard residues stand in square brackets, D forms with d. Residues, ends and D or L forms follow the SMILES beside them. X3 = CC(C)CCNCCC[C@H](N[*:1])C(=O)[*:2]; Orn(iPr) = CC(C)NCCC[C@H](N)C(=O)O; X1 = CCNCCC[C@H](N[*:1])C(=O)[*:2]; Orn(Pr) = CCCNCCC[C@H](N)C(=O)O; 3Thi = N[C@@H](Cc1ccsc1)C(=O)O; Dab = NCC[C@H](N)C(=O)O
result-type: selectivity hOT/hV1a
Give a plain numeric answer without units written out.

In the examples that follow, each entry is paired with its recorded selectivity hOT/hV1a.
CCNCCC[C@H](NC(=O)[C@@H]1CCCN1C(=O)[C@@H]1CSSC[C@H](N)C(=O)N[C@@H](Cc2ccccc2)C(=O)N[C@@H]([C@@H](C)CC)C(=O)N[C@@H](CCC(N)=O)C(=O)N[C@@H](CC(N)=O)C(=O)N1)C(=O)NCC(N)=O [Compound 6] (H-CFIQNCP[X1]G-NH2; disulfide 1-6; N-terminus and C-terminus assumed)
86
CC[C@H](C)[C@@H]1NC(=O)[C@H](Cc2ccccc2)NC(=O)[C@@H](N)CSSC[C@@H](C(=O)N2CCC[C@H]2C(=O)N[C@@H](CCCNCCC(C)C)C(=O)NCC(N)=O)NC(=O)[C@H](CC(N)=O)NC(=O)[C@H](CCC(N)=O)NC1=O [Compound 45] (H-CFIQNCP[X3]G-NH2; disulfide 1-6; N-terminus and C-terminus assumed)
18
CCCNCCC[C@H](NC(=O)[C@@H]1CCCN1C(=O)[C@@H]1CSSC[C@H](N)C(=O)N[C@@H](Cc2ccccc2)C(=O)N[C@@H]([C@@H](C)CC)C(=O)N[C@@H](CC(N)=O)C(=O)N[C@@H](CC(N)=O)C(=O)N1)C(=O)NCC(N)=O [Compound 50] (H-CFINNCP[Orn(Pr)]G-NH2; disulfide 1-6; N-terminus and C-terminus assumed)
43
CC[C@H](C)[C@@H]1NC(=O)[C@H](Cc2ccccc2)NC(=O)[C@@H](N)CSSC[C@@H](C(=O)N2CCC[C@H]2C(=O)N[C@@H](CCCNC(C)C)C(=O)NCC(N)=O)NC(=O)[C@H](CC(N)=O)NC(=O)[C@H](CCC(N)=O)NC1=O [Compound 5] (H-CFIQNCP[Orn(iPr)]G-NH2; disulfide 1-6; N-terminus and C-terminus assumed)
117

Below: the item to evaluate.
Could you share which selectivity hOT/hV1a value was measured for CC[C@H](C)[C@@H]1NC(=O)[C@H](Cc2ccsc2)NC(=O)[C@@H](N)CSSC[C@@H](C(=O)N2CCC[C@H]2C(=O)N[C@@H](CCN)C(=O)NCC(N)=O)NC(=O)[C@H](CC(N)=O)NC(=O)[C@H](CCC(N)=O)NC1=O [Compound 15] (H-C[3Thi]IQNCP[Dab]G-NH2; disulfide 1-6) ?
43
